test: Metabolic stability: in vitro incubation with liver microsomes; format: in vitro ADME; conditions: Mouse liver microsomes; maximum bioavailability calculated from half-life in the incubation mixture

{"columns": ["COMPOUND", "Fmax"],
 "data": [
  ["CN(C)CCOc1cc(OCCN(C)C)c2c(c1)O[C@@]1(c3ccc(Br)cc3)[C@H](c3ccccc3)C[C@H](O)[C@@]21O (relative stereo) [Example 22]", ">50%"],
  ["CCOc1cc(OCC)c2c(c1)O[C@@]1(c3ccc(Cl)cc3)[C@H](c3ccccc3)C[C@@H](N)[C@@]21O (racemic) [Example 15]", ">50%"],
  ["CN(C)CCOc1ccc2c(c1)O[C@@]1(c3ccc(Cl)cc3)[C@H](c3ccccc3)C[C@H](O)[C@@]21O (racemic) [Example 32]", ">50%"],
  ["CCOc1cc(OCC)c2c(c1)O[C@@]1(c3ccc(Br)cc3)[C@H](c3ccccc3)[C@@H](C(=O)N(C)C)C(=O)[C@@]21O (relative stereo) [Example 12]", "45.1%"],
  ["O[C@H]1C[C@@H](c2ccccc2)[C@]2(c3ccc(Cl)cc3)Oc3cccc(OCCN4CCCC4)c3[C@]12O (racemic) [Example 48]", ">50%"],
  ["COCCOc1cc(OCCOC)c2c(c1)O[C@@]1(c3ccc(Br)cc3)[C@H](c3ccccc3)C[C@@H](O)[C@@]21O (relative stereo) [Example 18]", ">50%"],
  ["CCOc1cc(OCC)c2c(c1)O[C@@]1(c3ccc(-c4ccsc4)cc3)[C@H](c3ccccc3)C[C@@H](O)[C@@]21O (relative stereo) [Example 3]", ">50%"]
]}
